Parameter: AC50. Scope: all listed entries.
system: HTT mRNA; experiment: Splicing assay (RT-qPCR) monitoring HTT splice variants, canonical (CJ) and alternative (AJ) junction; type: cell-based; details: increase in AJ mRNA, 50% response, A673 or K562 cell line, 24 hours

Some compounds with known AC50 results, for comparison:
Cn1cc2cc(-n3cc4sc(C5CCNCC5)cc4n3)ccc2n1 [Compound 100]; 1000 to 10000 nM
Cc1cn2nc(-c3nc4sc(C5=CCNCC5)cc4s3)cc(C)c2n1 [Compound 198]; 100 to 1000 nM
Cc1cn2nc(-n3cc4sc(N5CC6(CN(C)C6)C5)cc4n3)cc(C)c2n1 [Compound 188]; 1000 to 10000 nM

Moving on to another compound below.
Lab note: need AC50 with HTT mRNA for entry Cc1c(O)c(-c2cc3cn(C4CCNCC4)nc3s2)cc2cn(C)nc12 [Compound 221] , please look it up.
> 10000 nM
